Experiment: Plasma concentration in FVB mouse at 30 mg/kg, administered through oral gavage as single dose measured after 48 hrs post dose by LC-MS analysis
Assay type: ADME, organism-based
Measured concentration at 48 h, listed per entry.
Report the figure in nM without appending any unit label.

In [3]: df
Out[3]:
                                   molecule  readout_units  observed_value
0  CC(C)(O)CN1CCC(Oc2ccc([C@H]3CC[C@]4(CC3)OOC3(O4)C4CC5CC(C4)CC3C5)cc2)CC1 (stereo partly drawn)             nM            22.7
1  CC(C)(CN)Oc1ccc([C@H]2CC[C@]3(CC2)OOC2(O3)C3CC4CC(C3)CC2C4)cc1 (stereo partly drawn)             nM            7.97

Look at this molecule and give its reported concentration at 48 h. NCCCCOc1ccc([C@H]2CC[C@]3(CC2)OOC2(O3)C3CC4CC(C3)CC2C4)cc1 (stereo partly drawn)
23.4

Next molecule up: O[C@H]1CC[C@H](NCCCOc2ccc([C@H]3CC[C@]4(CC3)OOC3(O4)C4CC5CC(C4)CC3C5)cc2)CC1 (stereo partly drawn)
26.5

For N[C@H]1CC[C@@H](Oc2ccc([C@H]3CC[C@]4(CC3)OOC3(O4)C4CC5CC(C4)CC3C5)cc2)CC1 (stereo partly drawn) then?
145

----------
Experiment: Plasma concentration in FVB mouse at 30 mg/kg, administered through oral gavage as single dose measured after 48 hrs post dose by LC-MS analysis
Format: ADME, organism-based
Recorded Metric: concentration at 48 h

>>> df
                                   compound        recorded_metric  observed_value
0  c1cc([C@H]2CC[C@]3(CC2)OOC2(O3)C3CC4CC(C3)CC2C4)ccc1OCCN1CCCOCC1 (some centres undefined)  concentration at 48 h         13.2 nM
1  c1cc([C@H]2CC[C@]3(CC2)OO[C@]2(O3)C3CC4CC(C3)CC2C4)ccc1OCCN1CCOCC1 [ARTEFENOMEL]  concentration at 48 h          132 nM
2  c1cc([C@H]2CC[C@]3(CC2)OOC2(O3)C3CC4CC(C3)CC2C4)ccc1OC1CCNCC1 (some centres undefined)  concentration at 48 h         49.4 nM

Turning now to a further record.
Could you share which concentration at 48 h value was measured for c1cc([C@H]2CC[C@]3(CC2)OOC2(O3)C3CC4CC(C3)CC2C4)ccc1OCCC1CCNCC1 (some centres undefined) ?
192 nM

----------
Catalogue of concentration at 48 h values
Test: Plasma concentration in FVB mouse at 30 mg/kg, administered through oral gavage as single dose measured after 48 hrs post dose by LC-MS analysis
Type: ADME, organism-based
Give the value in nM but do not write nM after it.

Some entries whose results are on file:
In [3]: df
Out[3]:
                                   molecule        recorded_metric  readout_units  observed_value
0  CC(C)(O)CNCCCOc1ccc([C@H]2CC[C@]3(CC2)OOC2(O3)C3CC4CC(C3)CC2C4)cc1 (stereo not given in full)  concentration at 48 h             nM              36
1  c1cc([C@H]2CC[C@]3(CC2)OOC2(O3)C3CC4CC(C3)CC2C4)ccc1OCCOC1CCNCC1 (stereo not given in full)  concentration at 48 h             nM            97.6
2  c1cc([C@H]2CC[C@]3(CC2)OOC2(O3)C3CC4CC(C3)CC2C4)ccc1OCCN1CCNCC1 (stereo not given in full)  concentration at 48 h             nM            23.9

We next turn to a different molecule, shown below.
Request the reported concentration at 48 h associated with c1cc([C@H]2CC[C@]3(CC2)OOC2(O3)C3CC4CC(C3)CC2C4)ccc1OCC1CCNCC1 (stereo not given in full)
17.9
